- target-desc: UniProt:O76074
- procedure-details: PDE5 inhibition assay (BPS PDE assay kit, fluorescence polarization)
- Type: biochemical
- run-parameters: Table 1; 100 nM FAM-cGMP
pIC50: −log10 of the molar value.
Cut-off 9 on pIC50, inclusive. At or above means fulfilled; below means not fulfilled.

smiles_data=COc1ccc(CNc2c3c(nc4ccc(C#N)cc24)NCCNC3=O)cc1Cl class_name="not fulfilled"
smiles_data=COc1ccc(CNc2c3c(nc4ccc(Br)cc24)CCN(C)C3)cc1Cl class_name="not fulfilled"
smiles_data=COc1ccc(CNc2c3c(nc4ccc(C#N)cc24)CCN(C(C)=O)C3)cc1Cl class_name=fulfilled
smiles_data=COc1ccc(CNc2c3c(nc4ccc(Br)cc24)CCNC3)cc1Cl class_name="not fulfilled"

# evaluate next
IN: Answer whether pIC50 of CCc1cc(C#N)cc2c(NCc3ccc(OC)c(Cl)c3)c3c(nc12)CCN(C)C3 is greater than or equal to 9.
OUT: fulfilled
